# assay_text: Critical aggregation concentration (CAC) of surfactants, dynamic light scattering
# Format: physicochemical
# condition_info: in water
recorded_endpoint: CAC

Examples with answers:
substance	recorded_endpoint	result_value
VVVVVVD [V6D]	CAC	~0.7 mM
AAAAAAK [A6K]	CAC	~1.5 mM
AAAAAAD [A6D]	CAC	~1.6 mM

Alright, here's another substance for you.
Lab book: CAC of VVVVVVDD [V6D2] noted as 1.1 mM

Cited source: patent US20090069547A1
